I'd appreciate it if you could supply pIC50 values for the items below.
Target Of Assay: Aurora kinase A (Homo sapiens, UniProt O14965)
Sequence (O14965 whole entry): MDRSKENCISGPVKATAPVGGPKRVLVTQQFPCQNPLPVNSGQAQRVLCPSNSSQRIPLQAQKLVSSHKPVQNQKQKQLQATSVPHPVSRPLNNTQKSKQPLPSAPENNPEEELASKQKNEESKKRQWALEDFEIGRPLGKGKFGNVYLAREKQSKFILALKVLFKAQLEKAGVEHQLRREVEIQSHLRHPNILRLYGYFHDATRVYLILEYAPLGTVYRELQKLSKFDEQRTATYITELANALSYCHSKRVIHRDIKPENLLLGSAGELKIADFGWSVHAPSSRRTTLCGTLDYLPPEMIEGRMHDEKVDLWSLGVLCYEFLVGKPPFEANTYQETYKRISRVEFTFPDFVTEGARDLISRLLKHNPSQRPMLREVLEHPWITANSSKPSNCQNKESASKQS
Assay Details: Inhibition of aurora A kinase using 5TAMRA-GRTGRRNSICOOH as substrate by fluorescent assay
Numbers only, as −log10 of the molar value.

Worked set:
- Compound: "Cn1cc(-c2cnc3c(Nc4cc(C5CCNCC5)ns4)nccn23)cn1"
  pIC50: 5.80
- Compound: "Cc1cc(Nc2nc([S+](C)[O-])cn3c(-c4cn[nH]c4)cnc23)sn1 (racemic)"
  pIC50: 7.52
- Compound: "Cc1cc(Nc2nc(C(F)(F)F)cn3c(-c4cn[nH]c4)cnc23)sn1"
  pIC50: 7.57
- Compound: "CS(=O)(=O)N1CCC(c2cc(Nc3nccn4c(-c5cn[nH]c5)cnc34)sn2)CC1"
  pIC50: 8.22
- Compound: "CN(C)S(=O)(=O)c1ccc(Nc2nccn3c(-c4cnn(C)c4)cnc23)cc1"
  pIC50: 5.43
- Compound: "Cc1csc(Nc2nccn3c(-c4cnn(C)c4)cnc23)c1"
  pIC50: 5.60
- Compound: "Cc1cc(Nc2nc(CN3CCOCC3)cn3c(-c4cn[nH]c4)cnc23)sn1"
  pIC50: 7.30
- Compound: "O=S(=O)(c1ccc(Nc2nccn3c(-c4cn[nH]c4)cnc23)cc1)N1CCOCC1"
  pIC50: 7.09

Count: 2. Required value per item: pIC50.
1. Cc1cc(Nc2nc(C#N)cn3c(-c4cn[nH]c4)cnc23)sn1
2. Cc1cc(Nc2nc(-c3cccnc3)cn3c(-c4cn[nH]c4)cnc23)sn1

1: 7.34; 2: 8.10
